test: Selectivity index, ratio of CC50 for Cytotoxicity against hamster BHK-21 cells to EC50 for Antiviral activity against CHIKV 6708 infected in hamster BHK-21 cells; type: toxicity, cell-based; conditions: read-out: Ratio CC50/EC50
VALUE KIND: selectivity ratio
// return just the number, without any unit appended

Give recorded selectivity ratio. C=C1CC[C@H]2C(C)(C)CCC[C@]2(C)[C@H]1C/C=C1/C(=O)Nc2c(Cl)cccc21 714

###

Documented Activity across a set of molecules
tested on: Chikungunya virus; test: Antiviral activity against CHIKV 122508 infected in human HeLa CCL2 cells assessed as inhibition of viral replication at MOI of 1 at 10 uM incubated for 24 hpi by viral plaque assay; assay type: functional; parameters: unit not given here; conditions: time 24 hrs
// return just the number, without any unit appended

These solved cases illustrate the format of a correct answer.
C=C1CC[C@H]2C(C)(C)CCC[C@]2(C)[C@H]1C/C=C1/C(=O)Nc2ccc(C)cc21	3.7
C=C1CC[C@H]2C(C)(C)CCC[C@]2(C)[C@H]1C/C=C1\C(=O)Nc2c(F)cccc21	2
C=C1[C@H](O)C[C@H]2C(C)(C)CCC[C@]2(C)[C@H]1C/C=C1\C(=O)Nc2c(Cl)cccc21	2.1

# evaluate next
Give recorded Activity. C=C1CC[C@H]2C(C)(C)CCC[C@]2(C)[C@H]1C/C=C1\C(=O)Nc2c(OC)cccc21 1.5
